Sourced from patent EP0193249A2

# Test system: B16 melanoma cells
# assay.details: B16 melanoma test (test 1)
# Assay type: cell-based
# measurement.conditions: Mus musculus, 50 /ug/ml, aqueous suspension, incubation 20 hours, cells counted 48 hours after start
measurement.label: inhibition at 50 µg/mL

State its inhibition at 50 µg/mL on B16 melanoma cells: O=C(NC(=O)c1c(F)cccc1F)Nc1ccc(C(O)(C(F)(F)F)C(F)(F)F)cc1
81 to 100%

Also O=C(NC(=O)c1c(F)c(F)c(F)c(F)c1F)Nc1ccc(O)c(C(F)(F)F)c1 ?
81 to 100%

Same lookup for CN(C)c1ccccc1C(=O)NC(=O)Nc1ccc(Cl)cc1 , please.
81 to 100%

Now the molecule CN(C)c1cccc(F)c1C(=O)NC(=O)Nc1ccc(Cl)cc1
81 to 100%

Try this molecule next: Nc1ccc(C(=O)NC(=O)Nc2ccccc2N)cc1
1 to 20%

Next up: O=C(NC(=O)c1ccccc1N1CCCCC1)Nc1ccc(C(F)(F)F)cc1
1 to 20%

Another: CCN(CC)c1cccc(F)c1C(=O)NC(=O)Nc1ccc(Cl)cc1
21 to 40%

Try the molecule COc1ccc(NC(=O)NC(=O)c2c(F)cccc2N(C)C)cc1
81 to 100%

Param item: CCOC(=O)c1ccc(NC(=O)NC(=O)c2c(F)cccc2F)cc1
41 to 60%

* * *

# System: B16 melanoma cells
# assay.details: B16 melanoma test (test 1)
# Assay type: cell-based
# measurement.conditions: Mus musculus, 50 /ug/ml, aqueous suspension, incubation 20 hours, cells counted 48 hours after start
Record form. Attribute: inhibition at 50 µg/mL. Fill in for each entry.

So what's the measured inhibition at 50 µg/mL for this one? CC(Oc1ccc(NC(=O)NC(=O)c2c(F)cccc2F)cc1)c1ccncc1 (stereo not drawn) [compound 14]
61 to 80%

Can you check O=C(NC(=O)c1c(F)c(F)c(F)c(F)c1F)Nc1c(F)c(F)c(F)c(F)c1F [compound 6] next?
81 to 100%

Cool, now Nc1cc(N)c(Cl)c(C(=O)NC(=O)Nc2ccc(Cl)cc2)c1Cl [compound 9]
21 to 40%
